Overview of recorded binding affinity ratio (IC50 of the standard peptide / IC50 of the test peptide) for various binders
molecular target: HLA-A*0201 (human); test: competition with 125I-labelled standard peptide for purified HLA-A*0201, gel filtration
# answer = number (no unit)

Consider the reported binding affinity ratio (IC50 of the standard peptide / IC50 of the test peptide) for these binders:
>>> value_observed("GTGCNGWFYV (modifications not checked) [HPV18 E1 peptide … (position 11, 10 amino acids)]")
0.0006
>>> value_observed("ELNTSLQDI (modifications not checked) [HPV18 E6 20 …]")
0.0001
>>> value_observed("DLFVVYRDSI (modifications not checked) [HPV18 E6 51 …]")
0.0001
>>> value_observed("FIQGAVISFV (modifications not checked) [HPV18 E1 peptide … (position 500, 10 amino acids)]")
0.046

[ask] Specify measured binding affinity ratio (IC50 of the standard peptide / IC50 of the test peptide) for DTLEKLTNT (modifications not checked) [HPV18 E6 88 …] .
[reply] 0.0001

[ask] // fetch binding affinity ratio (IC50 of the standard peptide / IC50 of the test peptide) given entry FIHFIQGAVI (modifications not checked) [HPV18 E1 peptide … (position 497, 10 amino acids)]
[reply] 0.0057

All values here come from patent US7026443.
